Cited source for all entries: ChEMBL document CHEMBL6071136

assay: Tmax in Sprague-Dawley rat at 10 mg/kg, po measured upto 24 hrs by LC/MS-MS analysis; assay type: ADME, organism-based; conditions: in vivo
The entries below are paired with their reported Tmax.

CC1(C)CCOC(=O)[C@@H]2C[C@@H](C[C@@H](C#N)NC(=O)[C@@H]3[C@@H]4[C@H](CN3C(=O)[C@H]1NC(=O)C(F)(F)F)C4(C)C)C(=O)N2    15 min
COC(=O)N[C@@H]1C(=O)N2C[C@H]3[C@@H]([C@H]2C(=O)N[C@H](C#N)C[C@@H]2C[C@H](NC2=O)C(=O)OCC1(C)C)C3(C)C    20 min

The recorded Tmax for CC1(C)COC(=O)[C@@H]2C[C@@H](C[C@@H](C#N)NC(=O)[C@@H]3[C@@H]4[C@H](CN3C(=O)[C@H]1NC(=O)C(F)(F)C1CC1)C4(C)C)C(=O)N2 is 20 min
